- Measured target: Vascular endothelial growth factor receptor 2 (Homo sapiens)
- Sequence (P35968 whole entry): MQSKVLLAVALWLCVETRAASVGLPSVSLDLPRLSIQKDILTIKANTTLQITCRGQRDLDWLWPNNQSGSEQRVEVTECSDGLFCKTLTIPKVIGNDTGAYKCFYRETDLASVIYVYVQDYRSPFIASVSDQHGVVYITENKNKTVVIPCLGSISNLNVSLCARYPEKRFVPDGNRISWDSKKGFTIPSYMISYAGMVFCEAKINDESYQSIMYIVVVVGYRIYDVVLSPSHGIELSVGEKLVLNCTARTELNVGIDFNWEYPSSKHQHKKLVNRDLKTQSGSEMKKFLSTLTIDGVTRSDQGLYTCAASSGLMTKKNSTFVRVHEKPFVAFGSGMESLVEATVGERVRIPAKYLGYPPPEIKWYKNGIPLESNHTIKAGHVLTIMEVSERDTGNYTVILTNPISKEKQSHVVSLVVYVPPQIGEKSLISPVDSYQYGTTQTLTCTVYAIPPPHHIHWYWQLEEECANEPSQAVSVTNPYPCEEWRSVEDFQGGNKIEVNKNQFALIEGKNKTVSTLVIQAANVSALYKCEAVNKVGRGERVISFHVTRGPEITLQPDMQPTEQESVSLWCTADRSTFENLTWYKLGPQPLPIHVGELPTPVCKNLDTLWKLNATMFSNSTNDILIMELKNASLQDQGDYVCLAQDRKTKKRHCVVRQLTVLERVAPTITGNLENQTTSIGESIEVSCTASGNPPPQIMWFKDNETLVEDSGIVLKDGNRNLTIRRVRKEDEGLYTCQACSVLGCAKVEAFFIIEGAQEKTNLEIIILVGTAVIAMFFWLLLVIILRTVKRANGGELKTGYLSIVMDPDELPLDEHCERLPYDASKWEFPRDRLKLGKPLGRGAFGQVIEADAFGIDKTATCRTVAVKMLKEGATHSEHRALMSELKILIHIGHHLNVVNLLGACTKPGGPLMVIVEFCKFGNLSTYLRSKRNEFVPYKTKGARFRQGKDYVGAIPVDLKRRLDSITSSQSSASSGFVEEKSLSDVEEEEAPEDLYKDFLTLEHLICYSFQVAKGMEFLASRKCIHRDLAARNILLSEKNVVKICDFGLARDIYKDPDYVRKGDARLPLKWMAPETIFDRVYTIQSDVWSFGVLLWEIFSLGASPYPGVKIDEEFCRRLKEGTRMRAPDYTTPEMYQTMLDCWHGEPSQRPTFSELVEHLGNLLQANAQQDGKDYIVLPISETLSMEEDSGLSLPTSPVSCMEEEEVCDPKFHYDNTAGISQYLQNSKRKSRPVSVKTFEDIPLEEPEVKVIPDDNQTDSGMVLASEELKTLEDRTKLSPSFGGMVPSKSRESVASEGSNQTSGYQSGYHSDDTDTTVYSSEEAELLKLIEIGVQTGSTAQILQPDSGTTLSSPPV
- Conditions: at 1 µM
- Description: Inhibition of VEGFR2 (unknown origin) using Poly (Glu, Tyr) 4:1 as substrate at 1 uM preincubated with substrate followed by enzyme challenge for 1 hr by ELISA relative to control
Quantity measured: inhibition (%)

> print(dat)
                                     smiles  assay.value
1  COc1ccc(CC(=O)Nc2ccc3oc(-c4ccccc4F)nc3c2)cc1         94.6
2  O=C(Nc1ccc2[nH]c(-c3ccc(Cl)cc3)nc2c1)c1ccc(Cl)c(F)c1         87.5
3  COc1ccc(CC(=O)Nc2ccc3oc(-c4ccc(Cl)c(Br)c4)nc3c2)cc1         79.9
4  COc1ccc(CC(=O)Nc2ccc3oc(-c4ccc(Cl)c(Br)c4)nc3c2)cc1OC           65
5  COc1cc(CC(=O)Nc2ccc3oc(-c4ccccc4Cl)nc3c2)cc(OC)c1OC         75.8

---

- Measured target: Vascular endothelial growth factor receptor 2 (Homo sapiens);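 note: enzymatic VEGFR2 kinase assay on Poly(Glu,Tyr) 4:1 substrate, compound first preincubated with substrate, then 1 h enzyme reaction, ELISA read-out, inhibition relative to control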
- Conditions: at 1 µM
Quantity measured: inhibition (%)

Sample records with inhibition:
> print(dat)
                                     smiles  assay.value
1  Cc1ccc(CC(=O)Nc2ccc3oc(-c4ccccc4F)nc3c2)cc1         97.3
2  O=C(Nc1ccc2oc(-c3ccccc3Br)nc2c1)c1ccc(Cl)c(Br)c1         71.4
3  COc1ccc(CC(=O)Nc2ccc3oc(-c4ccc(OC)cc4)nc3c2)cc1         38.4
4  COc1ccc(CC(=O)Nc2ccc3oc(-c4ccccc4Cl)nc3c2)cc1         90.1
5  O=C(Nc1ccc2oc(-c3ccccc3Br)nc2c1)c1ccc(Br)c(F)c1         62.3
6  O=C(Nc1ccc2oc(-c3ccccc3Cl)nc2c1)c1ccc(Br)c(F)c1         59.5
7  Cc1ccc(CC(=O)Nc2ccc3[nH]c(-c4ccc(Cl)cc4)nc3c2)cc1          100

P: O=C(Nc1ccc2oc(-c3ccccc3Cl)nc2c1)c1ccc(Cl)c(F)c1
Q: COc1cc(CC(=O)Nc2ccc3oc(-c4ccc(Cl)c(Br)c4)nc3c2)cc(OC)c1OC
R: COc1ccc(CC(=O)Nc2ccc3oc(-c4ccc(Cl)cc4)nc3c2)cc1
Ordering criterion: inhibition; begin with the maximum. Please express your ranking as an ordered list of the labels.
R, P, Q
(R: 102%, P: 71.3%, Q: 47.5%)

---

- Measured target: UniProt P00533
- Sequence (P00533 whole entry): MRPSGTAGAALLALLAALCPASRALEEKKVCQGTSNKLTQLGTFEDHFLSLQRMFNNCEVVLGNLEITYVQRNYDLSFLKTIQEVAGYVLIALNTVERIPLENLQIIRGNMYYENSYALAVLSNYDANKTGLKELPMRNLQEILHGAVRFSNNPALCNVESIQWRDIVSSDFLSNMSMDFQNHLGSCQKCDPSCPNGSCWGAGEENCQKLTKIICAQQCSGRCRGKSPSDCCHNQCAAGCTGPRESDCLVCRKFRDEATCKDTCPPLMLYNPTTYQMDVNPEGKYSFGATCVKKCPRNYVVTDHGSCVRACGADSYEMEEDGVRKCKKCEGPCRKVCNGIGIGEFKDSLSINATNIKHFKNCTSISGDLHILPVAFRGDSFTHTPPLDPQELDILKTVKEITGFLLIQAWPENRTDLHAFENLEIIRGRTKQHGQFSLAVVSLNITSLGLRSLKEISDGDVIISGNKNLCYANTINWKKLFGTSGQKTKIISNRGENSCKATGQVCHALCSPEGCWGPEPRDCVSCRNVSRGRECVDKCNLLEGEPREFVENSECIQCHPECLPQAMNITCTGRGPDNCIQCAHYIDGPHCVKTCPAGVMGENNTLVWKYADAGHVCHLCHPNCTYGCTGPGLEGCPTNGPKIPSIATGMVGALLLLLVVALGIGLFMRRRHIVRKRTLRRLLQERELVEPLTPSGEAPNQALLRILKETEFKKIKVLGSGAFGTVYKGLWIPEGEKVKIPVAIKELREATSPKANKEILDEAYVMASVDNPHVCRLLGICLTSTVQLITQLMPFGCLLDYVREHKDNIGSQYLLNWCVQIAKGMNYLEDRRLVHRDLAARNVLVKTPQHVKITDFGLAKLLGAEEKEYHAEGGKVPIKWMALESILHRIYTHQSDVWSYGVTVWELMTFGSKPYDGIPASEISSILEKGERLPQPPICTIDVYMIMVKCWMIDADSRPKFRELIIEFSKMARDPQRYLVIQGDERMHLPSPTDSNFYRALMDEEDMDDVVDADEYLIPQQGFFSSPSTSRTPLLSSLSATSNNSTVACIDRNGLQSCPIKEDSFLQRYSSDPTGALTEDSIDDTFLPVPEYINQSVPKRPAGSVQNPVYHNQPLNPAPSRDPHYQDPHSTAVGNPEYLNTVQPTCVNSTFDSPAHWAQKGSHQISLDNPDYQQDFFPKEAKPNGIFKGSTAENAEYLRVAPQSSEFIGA
- Protocol notes: Inhibition of EGFR (unknown origin) using Poly (Glu, Tyr) 4:1 as substrate at 1 uM preincubated with substrate followed by enzyme challenge for 1 hr by ELISA relative to control
Quantity measured: inhibition (%)

Sample records with inhibition:
> print(dat)
                                     smiles  quantity.measured  unit.string  assay.value
1  O=C(Nc1ccc2oc(-c3ccccc3Br)nc2c1)c1ccc(Cl)c(Br)c1         inhibition            %         27.5
2  O=C(Nc1ccc2oc(-c3ccc(Cl)cc3)nc2c1)c1ccc(Br)c(F)c1         inhibition            %         35.8
3  COc1ccc(CC(=O)Nc2ccc3oc(-c4ccc(Cl)c(Br)c4)nc3c2)cc1         inhibition            %         36.3
4  COc1ccc(CC(=O)Nc2ccc3[nH]c(-c4ccc(OC)cc4)nc3c2)cc1         inhibition            %         27.8
5  O=C(Nc1ccc2[nH]c(-c3ccc(Cl)cc3)nc2c1)c1ccc(Cl)c(F)c1         inhibition            %         45.2

I: O=C(Nc1ccc2oc(-c3ccccc3)nc2c1)c1ccc(Br)c(F)c1
II: COc1ccc(CC(=O)Nc2ccc3oc(-c4ccccc4F)nc3c2)cc1
Could you kindly indicate whether I or II has the higher inhibition value? Your answer should be the label attached to the chosen record.
II
(II: 42.8%, I: 21.9%)
